Origin of values: BindingDB's records for patent WO2025049746

target: Bifunctional 3'-5' exonuclease/ATP-dependent helicase WRN (Homo sapiens, UniProt Q14191); experiment: ADP-Glo Kinase Assay
Sequence (Q14191 whole entry): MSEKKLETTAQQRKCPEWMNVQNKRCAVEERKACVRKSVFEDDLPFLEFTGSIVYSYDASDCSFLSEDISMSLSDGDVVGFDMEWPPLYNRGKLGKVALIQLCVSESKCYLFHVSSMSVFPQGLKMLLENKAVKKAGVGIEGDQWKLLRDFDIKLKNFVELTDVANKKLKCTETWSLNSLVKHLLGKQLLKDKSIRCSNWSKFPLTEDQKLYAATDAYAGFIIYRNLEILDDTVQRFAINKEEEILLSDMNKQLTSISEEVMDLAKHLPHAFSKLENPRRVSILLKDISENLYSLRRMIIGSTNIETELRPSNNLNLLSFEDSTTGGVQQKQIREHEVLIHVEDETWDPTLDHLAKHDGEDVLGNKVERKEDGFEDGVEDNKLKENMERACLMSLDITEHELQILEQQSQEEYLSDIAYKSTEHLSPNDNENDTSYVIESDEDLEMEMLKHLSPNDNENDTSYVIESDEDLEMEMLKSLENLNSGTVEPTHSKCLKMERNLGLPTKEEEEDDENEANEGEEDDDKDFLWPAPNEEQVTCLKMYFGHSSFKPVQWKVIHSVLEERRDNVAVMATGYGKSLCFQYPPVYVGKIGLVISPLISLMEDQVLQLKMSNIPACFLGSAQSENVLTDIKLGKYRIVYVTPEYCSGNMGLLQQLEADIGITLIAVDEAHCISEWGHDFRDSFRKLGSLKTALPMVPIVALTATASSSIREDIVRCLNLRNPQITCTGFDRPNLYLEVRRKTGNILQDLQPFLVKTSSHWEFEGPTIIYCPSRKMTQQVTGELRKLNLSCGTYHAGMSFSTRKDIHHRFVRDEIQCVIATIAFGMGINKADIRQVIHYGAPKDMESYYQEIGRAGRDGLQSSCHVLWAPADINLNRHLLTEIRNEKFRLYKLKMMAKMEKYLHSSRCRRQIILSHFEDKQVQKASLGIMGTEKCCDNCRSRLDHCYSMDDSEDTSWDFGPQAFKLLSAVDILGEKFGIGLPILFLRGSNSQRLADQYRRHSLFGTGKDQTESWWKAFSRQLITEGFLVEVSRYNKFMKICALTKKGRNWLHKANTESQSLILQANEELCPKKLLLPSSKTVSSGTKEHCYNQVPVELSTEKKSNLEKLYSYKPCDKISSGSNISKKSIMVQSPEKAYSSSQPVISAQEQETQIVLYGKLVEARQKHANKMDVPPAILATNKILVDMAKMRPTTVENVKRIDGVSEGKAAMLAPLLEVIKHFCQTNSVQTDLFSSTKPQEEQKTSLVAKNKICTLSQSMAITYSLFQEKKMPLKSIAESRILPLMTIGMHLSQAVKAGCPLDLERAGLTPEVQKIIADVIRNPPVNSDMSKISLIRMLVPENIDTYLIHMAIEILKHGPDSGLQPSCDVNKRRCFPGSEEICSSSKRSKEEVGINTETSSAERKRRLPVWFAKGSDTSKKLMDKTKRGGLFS
assay.endpoint: IC50 (nM)

# compound, assay.endpoint, numeric.result
rows = [
    ("CCc1c(N2CCN(C(=O)c3nc4n(c(=O)c3OCc3ccccc3)CCOC4)CC2)c(=O)n2nc(N(C)C)nc2n1CC(=O)Nc1ccc(C(F)(F)F)cc1Cl", "IC50", 40.7),
    ("CCc1c(N2CCN(C(=O)c3ncnc(C)c3O)CC2)c(=O)n2nc(-c3ccc4nn(C(F)F)cc4c3)nc2n1CC(=O)Nc1ccc(C(F)(F)F)cc1Cl", "IC50", 24),
    ("CCc1c(N2CCN(C(=O)c3ncnc(C)c3O)CC2)c(=O)n2nc(N3CCC(=C(F)F)CC3)nc2n1CC(=O)Nc1ccc(C(F)(F)F)cc1Cl", "IC50", 36),
    ("CCc1c(N2CCN(C(=O)c3ncnc(C)c3O)CC2)c(=O)n2nc(-c3ccc4c(c3)CO[C@@H]4C(F)(F)F)nc2n1CC(=O)Nc1ccc(C(F)(F)F)cc1Cl", "IC50", 72),
    ("CCc1c(N2CCC3C2CCCN3C(=O)c2ncnc(C)c2O)c(=O)n2nc(C3=CCOCC3)nc2n1CC(=O)Nc1ccc(C(F)(F)F)cc1Cl (stereo unspecified)", "IC50", 132),
]

[A] CCc1c(N2CCN(C(=O)c3ncnc(C)c3O)CC2)c(=O)n2nc(-c3ccc4c(c3)OCO4)nc2n1CC(=O)Nc1ccc(C(F)(F)F)cc1Cl
[B] CCc1c(N2CCN(C(=O)c3ncnc(C)c3O)CC2)c(=O)n2nc(C3=CCOCC3)nc2n1CC(=O)Nc1ccc(OC(F)(F)Cl)cc1
For this pair, A and B , which shows a numerically higher IC50? Answer = label.
A
(A: 28.5 nM, B: 14.6 nM)

[I] CCc1c(N2CCN(C(=O)c3ncnc(C)c3O)CC2)c(=O)n2nc(C3=CCOCC3)nc2n1CC(=O)Nc1ccc(C(F)(F)C(F)(F)Cl)cc1
[II] CCc1c(N2CCN(C(=O)c3ncnc(C)c3O)CC2)c(=O)n2nc(C3=CCOCC3)nc2n1CC(=O)NC1CC2(C1)CC(F)(F)C2
[III] CCc1c(N2CCN(C(=O)c3ncnc(C)c3O)CC2)c(=O)n2nc(-c3cc(C(F)(F)F)c4ncccc4c3)nc2n1CC(=O)Nc1ccc(C(F)(F)F)cc1Cl
[IV] CCc1c(N2CCN(C(=O)c3cn(C)nc3O)CC2)c(=O)n2nc(N(C)C)nc2n1CC(=O)Nc1ccc(C(F)(F)F)c2c1CC2
Order the records so the highest IC50 appears first and the lowest last. Give the labels in the order requested.
II, IV, III, I

###

Biological target: Bifunctional 3'-5' exonuclease/ATP-dependent helicase WRN [480-1251] (UniProt Q14191)
Construct: 480-1251
Sequence (Q14191 480-1251): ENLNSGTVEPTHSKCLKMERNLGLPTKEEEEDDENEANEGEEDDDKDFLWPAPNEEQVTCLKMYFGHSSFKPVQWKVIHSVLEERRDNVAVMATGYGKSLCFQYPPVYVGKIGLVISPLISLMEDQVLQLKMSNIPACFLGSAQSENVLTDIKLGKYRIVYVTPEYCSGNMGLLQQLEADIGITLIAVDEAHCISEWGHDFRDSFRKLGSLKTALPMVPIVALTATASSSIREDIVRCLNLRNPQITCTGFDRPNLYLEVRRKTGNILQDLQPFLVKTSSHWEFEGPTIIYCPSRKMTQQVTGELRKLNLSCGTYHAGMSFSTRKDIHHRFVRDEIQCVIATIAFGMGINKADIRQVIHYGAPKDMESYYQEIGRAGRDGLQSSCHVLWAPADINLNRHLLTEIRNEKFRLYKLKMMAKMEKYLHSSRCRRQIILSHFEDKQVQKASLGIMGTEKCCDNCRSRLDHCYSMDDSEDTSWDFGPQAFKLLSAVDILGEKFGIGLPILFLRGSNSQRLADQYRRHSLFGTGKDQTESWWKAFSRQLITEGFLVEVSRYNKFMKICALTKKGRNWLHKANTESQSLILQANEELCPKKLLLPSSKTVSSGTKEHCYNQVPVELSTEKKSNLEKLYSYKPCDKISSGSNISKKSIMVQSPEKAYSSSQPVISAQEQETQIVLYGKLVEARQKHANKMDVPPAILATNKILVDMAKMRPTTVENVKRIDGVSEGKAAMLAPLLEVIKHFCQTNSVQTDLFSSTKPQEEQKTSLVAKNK
Experiment: Biochemical Activity Assays
Description: The pure fractions were pooled and desalted/buffer exchanged into storage buffer using a HiTrap desalting column. […] First, WRN alone was pre-incubated with DMSO or compound of interest for 15 minutes. To initiate the reaction, ATP, dsDNA substrate, and ssDNA competitor (ssDNA_comp: […]) were added and incubated at room temperature for 20 minutes at which point DNA unwinding activity was monitored by measuring Cy3 fluorescence. […]
assay.endpoint: IC50 (nM)

[A] CCc1c(N2CCN(C(=O)c3ncnc(C)c3O)CC2)c(=O)n2nc(C3CC3)nc2n1CC(=O)Nc1ccc(C(F)(F)F)cc1C [WO2025049746, Example 78]
[B] CCc1c(N2CCN(C(=O)c3ncnc(C)c3O)CC2)c(=O)n2nc(-c3ccc4scnc4c3)nc2n1CC(=O)Nc1ccc(C(F)(F)F)cc1Cl [WO2025049746, Example 288]
Short answer wanted: higher IC50, A or B ? Label of pick, please.
A
(A: 70.1 nM, B: 43 nM)

[a] CCc1c(N2CCN(C(=O)c3ncnc(C)c3O)CC2)c(=O)n2nc(-c3ccc4c(c3)C(=O)NC4)nc2n1CC(=O)Nc1ccc(C(F)(F)F)cc1Cl [WO2025049746, Example 188]
[b] CCc1c(N2CCN(C(=O)c3ncnc(C)c3O)CC2)c(=O)n2nc(-c3cccc4c3COC4)nc2n1CC(=O)Nc1c(Cl)cc(C(F)(F)F)c2c1CC2 [WO2025049746, Example 386]
Form: Entry with minimum IC50 (choose one): a / b Give the chosen item's label as your response.
a

###

biological target: Bifunctional 3'-5' exonuclease/ATP-dependent helicase WRN (Homo sapiens); assay: ADP-Glo Kinase Assay
pIC50: −log10 of the molar value.
assay.endpoint: pIC50

# smi, numeric.result
data = [
    ("CCc1c(N2CCN(C(=O)c3ncnc(C)c3O)CC2)c(=O)n2nc(N(C)C)nc2n1CC(=O)Nc1c(Cl)cc(C(F)(F)F)c2c1CC2", 7.39),
]

[a] CCc1c(N2CCN(C(=O)c3ncnc(C)c3O)CC2)c(=O)n2nc(-c3ccc4c(c3)CCO4)nc2n1CC(=O)Nc1ccc(Cl)c(OC(F)F)c1Cl
[b] CCc1c(N2CC[C@@H](C)N(C(=O)c3ncnc(C)c3O)CC2)c(=O)n2nc(C3=CCOCC3)nc2n1CC(=O)Nc1ccc(C(F)(F)F)cc1Cl
Just curious, which one has the larger pIC50 reading, a or b ? State your choice using its label.
a
(a: 7.36, b: 7.10)

###

target: Bifunctional 3'-5' exonuclease/ATP-dependent helicase WRN [480-1251] (UniProt Q14191); construct: 480-1251; experiment: Biochemical Activity Assays
pIC50: −log10 of the molar value.
assay.endpoint: pIC50

[1] CCc1c(N2CCCC3C2CCN3C(=O)c2ncnc(C)c2O)c(=O)n2nc(C3=CCOCC3)nc2n1CC(=O)Nc1ccc(C(F)(F)F)cc1Cl (stereo not given) [WO2025049746, Example 345]
[2] CCc1c(N2CCN(C(=O)c3ncnc(C)c3O)CC2)c(=O)n2nc(-c3ccc4c(c3)C(C)(C)OC4(C)C)nc2n1CC(=O)Nc1ccc(C(F)(F)F)cc1Cl [WO2025049746, Example 172]
Min pIC50? 1 | 2 Refer to your chosen item by its label in the answer.
1

[I] CCc1c(N2CCN(C(=O)c3ncnc(C)c3O)CC2)c(=O)n2nc(-c3cc4cn(C)nc4cc3F)nc2n1CC(=O)Nc1ccc(C(F)(F)F)cc1Cl [WO2025049746, Example 256]
[II] CCc1c(N2CCN(C(=O)c3ccccc3NS(=O)(=O)C3CC3)CC2)c(=O)n2nc(-c3ccc4c(c3)CCOC4)nc2n1CC(=O)Nc1ccc(C(F)(F)F)cc1Cl [WO2025049746, Example 91]
Look at I and II . Which one has the lower recorded pIC50 number? API: response body contains the label of the selected item.
II
(II: 7.07, I: 7.66)

###

biological target: Bifunctional 3'-5' exonuclease/ATP-dependent helicase WRN [480-1251] (UniProt Q14191); construct: 480-1251; assay: Biochemical Activity Assays
assay.endpoint: IC50 (nM)

# molecule, numeric.result
records = [
    ("CCc1c(N2CCN(C(=O)c3cccc4[nH]c(=O)[nH]c34)CC2)c(=O)n2nc(C3=CCOCC3)nc2n1CC(=O)Nc1ccc(C(F)(F)F)cc1Cl [WO2025049746, Example 51]", 43.9),
]

[I] CCc1c(N2CCN(C(=O)c3nc4c(cc3O)OCCC4)CC2)c(=O)n2nc(-c3ccc4c(c3)COC4)nc2n1CC(=O)Nc1ccc(C(F)(F)F)cc1Cl [WO2025049746, Example 432]
[II] CCc1c(N2CCN(C(=O)c3ccnc4cc[nH]c34)CC2)c(=O)n2nc(C3=CCOCC3)nc2n1CC(=O)Nc1ccc(C(F)(F)F)cc1Cl [WO2025049746, Example 46]
Among I and II , which shows a numerically higher IC50 result? Let me know the label of the one you choose.
I
(I: 75 nM, II: 36 nM)

###

target: Bifunctional 3'-5' exonuclease/ATP-dependent helicase WRN (Homo sapiens, UniProt Q14191); assay: ADP-Glo Kinase Assay
assay.endpoint: IC50 (nM)

[a] CCc1c(N2CCN(C(=O)c3nccc4nc[nH]c34)CC2)c(=O)n2nc(N(C)C)nc2n1CC(=O)Nc1ccc(C(F)(F)F)cc1Cl [WO2025049746, Example 80]
[b] CCc1c(N2CCN(C(=O)c3ncnc(C)c3O)CC2)c(=O)n2nc(C3=CCOCC3)nc2n1CC(=O)NC12CC(C)(C1)C2(F)F [WO2025049746, Example 371]
// compare measured IC50 between a and b ; output the lower one Selection: enter the item's label.
a
(a: 43.3 nM, b: 1480 nM)

###

target: Bifunctional 3'-5' exonuclease/ATP-dependent helicase WRN [480-1251] (UniProt Q14191); construct: 480-1251; assay: Biochemical Activity Assays
assay.endpoint: IC50 (nM)

# smi, IC50 (nM)
measured = [
    ("CCc1c(N2CCN(C(=O)c3ncnc(C)c3O)CC2)c(=O)n2nc(-c3nc4c(s3)CCC4)nc2n1CC(=O)Nc1ccc(C(F)(F)F)cc1Cl", 31),
]

[P] CCc1c(N2CCN(C(=O)c3ncnc(C)c3O)CC2)c(=O)n2nc(-c3ccc4c(c3)C(C)(C)CO4)nc2n1CC(=O)Nc1ccc(C(F)(F)F)cc1Cl
[Q] CCc1c(N2CCN(C(=O)c3ncnc(C)c3O)CC2)c(=O)n2nc(-c3cc4c(cc3F)O[C@@H](C)C4)nc2n1CC(=O)Nc1ccc(C(F)(F)F)cc1Cl
// compare: P vs Q , metric IC50, want the smaller Please respond with the label that marks your chosen entry.
Q
